Taken from ChEMBL document CHEMBL4622926.

Assay: Partition coefficient, logP of compound by RP-HPLC analysis
Type: physicochemical
Conditions: octanol/water; read-out: logP
Assign logP to each entry below.
Just the number, please.

## Task Item CN(C(=O)COc1ccc(Cl)nn1)C1CCN(CC2CC2(F)F)CC1 (stereo unspecified) has what recorded logP?
## Result 3.1

## Task What do you have for `Cc1nc(OCC(=O)N(C)C2CCN(Cc3ncccc3F)CC2)nc(C)c1N` ?
## Result 1.7

## Task Continue with `Cc1nc(OCC(=O)N(C)C2CCN(Cc3ncccn3)CC2)nc(C)c1N`
## Result 1

## Task Can you check `Cc1nc(OCC(=O)N(C)C2CCN(C3COC3)CC2)nc(C)c1N` next?
## Result 1.1

## Task Try this molecule too: `CN(C(=O)COc1ccc(Cl)nn1)C1CCN(Cc2ncccc2F)CC1`
## Result 2.6

## Task Cool, now `Cc1nc(OCC(=O)N(C)C2CCN(CC(F)(F)F)CC2)nc(C)c1N`
## Result 2.6
